B1: library; numbered along this chain (parent)
chain: MATDAALRRLLRLHRTEIAVAVDSAFPLLHALADHDVVPEDKFQETLHLKEKEGCPQAFHALLSWLLTQDSTAILDFWRVLFKDYNLERYGRLQPILDSFPKDVDLSQPRKGRKPPAVPKALVPPPRLPTKRKASEEARAAAPAALTPRGTASPGSQLKAKPPKKPESSAEQQRLPLGNGIQTMSASVQRAVAMSSGDVPGARGAVEGILIQQVFESGGSKKCIQVGGEFYTPSKFEDSGSGKNKARSSSGPKPLVRAKGAQGAAPGGGEARLGQQGSVPAPLALPSDPQLHQKNEDECAVCRDGGELICCDGCPRAFHLACLSPPLREIPSGTWRCSSCLQATVQEVQPRAEEPRPQEPPVETPLPPGLRSAGEEVRGPPGEPLAGMDTTLVYKHLPAPPSAAPLPGLDSSALHPLLCVGPEGQQNLAPGARCGVCGDGTDVLRCTHCAAAFHWRCHFPAGTSRPGTGLRCRSCSGDVTPAPVEGVLAPSPARLAPGPAKDDTASHEPALHRDDLESLLSEHTFDGILQWAIQSMARPAAPFPS

# Variants of: B1
# METHOD_SUMMARY: AIRE transcriptional activation functional score (insulin promoter-GFP; nonsense median 0, synonymous median 1) (normalised score); higher = higher AIRE activity (more reporter activation)
# RUN_PARAMETERS: with insulin promoter-GFP reporter in HEK293
Class membership depends on AIRE transcriptional activation functional score alone; the intervals are lower level: < 0.4; middle level: ≥ 0.4 and < 0.9; upper level: ≥ 0.9

Inquiry: Which AIRE transcriptional activation functional score category applies to "P315F" here?
Reply text: middle level
